These data points were gathered from the supplement of paper PMC11061612.

# Tested on: HCC2157 (Breast Carcinoma);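 further: after 72 h of two-drug dosing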
# assay details: Bliss excess, mean over the matrix (fraction); higher = more synergy
metric: Bliss excess

1) COc1cc2c(cc1OCCCCCOc1cc3c(cc1OC)C(=O)N1C=C(C)C[C@H]1C=N3)N=C[C@@H]1CC(C)=CN1C2=O [SG3199] + O=C(c1cc(Cc2n[nH]c(=O)c3ccccc23)ccc1F)N1CCN(C(=O)C2CC2)CC1 [Olaparib] (first compound max 0.001 µM, 7x7, partner max 10 µM) :: 0.0277
2) Cc1c2c(nn1C)CSCc1cc(n(C)n1)CSc1cc(c3ccccc3c1)OCCCc1c(C(=O)O)n(C)c3c-2c(Cl)ccc13 [AZD5991] + Cc1cc2ncnn2cc1Nc1ncc2c(n1)n(C1CCOCC1)c(=O)n2C [AZD7648] (first compound max 1 µM, 7x7, partner max 10 µM) :: 0.0283
3) CC1(C)CCC(CN2CCN(c3ccc(C(=O)NS(=O)(=O)c4ccc(NCC5CCOCC5)c([N+](=O)[O-])c4)c(Oc4cnc5[nH]ccc5c4)c3)CC2)=C(c2ccc(Cl)cc2)C1 [Venetoclax] + C[C@@H](Nc1cc(F)cc(F)c1)c1cc(C(=O)N(C)C)cc2c(=O)cc(N3CCOCC3)oc12 [AZD8186] (first compound max 1 µM, 7x7, partner max 3 µM) :: 0.115
4) Cc1cc2ncnn2cc1Nc1ncc2c(n1)n(C1CCOCC1)c(=O)n2C [AZD7648] + CN(C)CCCOc1ccc(-c2ccc3ncc4c(c3c2)n(C2CCOCC2)c(=O)n4C)cn1 [AZD0156] (first compound max 10 µM, 7x7, partner max 1 µM) :: 0.0081
5) COc1nnc2ccc(N3CCC(c4ccc(OCCN5CCN(C)C(=O)[C@H]5C)cc4)CC3)nn12 [AZD5153] + C[C@@H]1COCCN1C2=NC(=NC(=C2)C3(CC3)[S@](=N)(=O)C)C4=C5C=CNC5=NC=C4 [AZD6738] (first compound max 1 µM, 7x7, partner max 10 µM) :: -0.0086
6) CN(C)CCCOc1ccc(-c2ccc3ncc4c(c3c2)n(C2CCOCC2)c(=O)n4C)cn1 [AZD0156] + O=C(c1cc(Cc2n[nH]c(=O)c3ccccc23)ccc1F)N1CCN(C(=O)C2CC2)CC1 [Olaparib] (first compound max 3 µM, partner max 3 µM) :: 0.0313
7) CC1(C)CCC(CN2CCN(c3ccc(C(=O)NS(=O)(=O)c4ccc(NCC5CCOCC5)c([N+](=O)[O-])c4)c(Oc4cnc5[nH]ccc5c4)c3)CC2)=C(c2ccc(Cl)cc2)C1 [Venetoclax] + Cc1cc2ncnn2cc1Nc1ncc2c(n1)n(C1CCOCC1)c(=O)n2C [AZD7648] (first compound max 1 µM, 7x7, partner max 10 µM) :: 0.0602
8) C[C@@H](c1ccc2nccn2c1)n1nnc2ncc(-c3cnn(C)c3)nc21 [Savolitinib] + CN(CC[C@H](CSC1=CC=CC=C1)NC2=C(C=C(C=C2)S(=O)(=O)NC(=O)C3=CC=C(C=C3)N4CCC(CC4)[C@H](C5=CC=CC=C5C6=CC=C(C=C6)Cl)O)S(=O)(=O)C(F)(F)F)CCO [AZD4320] (first compound max 1 µM, 7x7, partner max 1 µM) :: -0.0331
9) COc1cccc(OCCCN)c1-c1cc(Nc2cnc(C#N)cn2)n[nH]1 [Prexasertib] + C[C@@H]1COCCN1C2=NC(=NC(=C2)C3(CC3)[S@](=N)(=O)C)C4=C5C=CNC5=NC=C4 [AZD6738] (first compound max 1 µM, 7x7, partner max 10 µM) :: -0.0145
10) CN(CCO)CC[C@H](CSc1ccccc1)Nc1ccc(S(=O)(=O)NC(=O)c2ccc(N3CCC([C@@H](O)c4ccccc4-c4ccc(Cl)cc4)CC3)cc2)cc1S(=O)(=O)C(F)(F)F [AZD4320] + CCN(CCO)CCCOc1ccc2c(Nc3cc(CC(=O)Nc4cccc(F)c4)[nH]n3)ncnc2c1 [AZD2811] (first compound max 1 µM, 7x7, partner max 1 µM) :: 0.0907
11) Cc1cc2ncnn2cc1Nc1ncc2c(n1)n(C1CCOCC1)c(=O)n2C [AZD7648] + C[C@@H]1COCCN1C2=NC(=NC(=C2)C3(CC3)[S@](=N)(=O)C)C4=C5C=CNC5=NC=C4 [AZD6738] (first compound max 10 µM, 7x7, partner max 10 µM) :: -0.0528
12) CCN(CCO)CCCOc1ccc2c(Nc3cc(CC(=O)Nc4cccc(F)c4)[nH]n3)ncnc2c1 [AZD2811] + O=C(c1cc(Cc2n[nH]c(=O)c3ccccc23)ccc1F)N1CCN(C(=O)C2CC2)CC1 [Olaparib] (first compound max 1 µM, 7x7, partner max 10 µM) :: -0.0105
13) COc1nnc2ccc(N3CCC(c4ccc(OCCN5CCN(C)C(=O)[C@H]5C)cc4)CC3)nn12 [AZD5153] + CN(CC[C@H](CSC1=CC=CC=C1)NC2=C(C=C(C=C2)S(=O)(=O)NC(=O)C3=CC=C(C=C3)N4CCC(CC4)[C@H](C5=CC=CC=C5C6=CC=C(C=C6)Cl)O)S(=O)(=O)C(F)(F)F)CCO [AZD4320] (first compound max 1 µM, 7x7, partner max 1 µM) :: 0.0047
